# credit: patent US20090175786A1

- target_entity: T1, neuromedin-B preferring receptor (NMB-R) of C6 rodent glioblastoma cells (rodent), P24053
- T1 chain: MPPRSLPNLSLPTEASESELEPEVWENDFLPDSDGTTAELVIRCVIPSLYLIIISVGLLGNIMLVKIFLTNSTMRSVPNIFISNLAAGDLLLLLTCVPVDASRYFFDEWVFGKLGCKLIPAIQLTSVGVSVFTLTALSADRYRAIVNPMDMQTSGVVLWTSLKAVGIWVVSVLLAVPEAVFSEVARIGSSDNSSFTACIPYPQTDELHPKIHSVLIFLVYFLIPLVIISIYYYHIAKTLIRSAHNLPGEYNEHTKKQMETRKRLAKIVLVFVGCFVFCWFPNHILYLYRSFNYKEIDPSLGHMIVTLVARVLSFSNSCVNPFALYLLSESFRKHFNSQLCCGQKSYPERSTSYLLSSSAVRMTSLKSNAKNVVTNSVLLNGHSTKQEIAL
- method_summary: 125I-NMB competition, C6 cells
Where no end group is shown, it is not given here.
measurement_label: pIC50
Give bare numbers, as −log10 of the molar value.

Look at this binder and give its reported pIC50. EQRYGNQWAVGHLM-NH2 (also: name truncated at 'p…', N-terminal modification unresolved) [p…-NH2]
8.47
